Origin of values: the supplement of paper PMC10567573

B1: FBXO3 (parent)
chain: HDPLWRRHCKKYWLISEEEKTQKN

# Variants of: B1
# protocol-details: protein stability index of a GFP-peptide fusion (GPS, HEK-293T) (PSI 1-6); higher = more stable;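 note: lentivirally expressed fusions sorted by FACS into six bins by GFP to DsRed ratio, PSI derived from sequencing read proportions per bin multiplied by bin number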
# assay-conditions: c terminus: a fixed tail appended
readout-label: protein stability index
No unit in the answer, only the number.

These recorded examples may help you get a feel for the data.
{"sequence-record": "HDPLWRRHCKMYWLISEEEKTQKN [K11M]", "protein stability index": 2.44}
{"sequence-record": "HDPLWMRHCKKYWLISEEEKTQKN [R6M]", "protein stability index": 3.58}
{"sequence-record": "HDPLWRRHCKKYWLISEEENTQKN [K20N]", "protein stability index": 3.24}
{"sequence-record": "HDPLWRRHCKKYWLISEEEKAQKN [T21A]", "protein stability index": 2.84}
{"sequence-record": "HDPLWRRHCKKYWLISHEEKTQKN [E17H]", "protein stability index": 3.05}

Ask: Data request, read-out protein stability index, for HDPLWRRHCKKYWGISEEEKTQKN [L14G]
Result: 3.79

Ask: Data request, read-out protein stability index, for HDPLWRRHCKKYWLISEEEKTQHN [K23H]
Result: 3.24

Ask: Data request, read-out protein stability index, for HVPLWRRHCKKYWLISEEEKTQKN [D2V]
Result: 1.97

Ask: Data request, read-out protein stability index, for TDPLWRRHCKKYWLISEEEKTQKN [H1T]
Result: 3.66
